# Tested on: ST486
# experiment notes: SANGER: Inhibition of human ST486 cell growth in a cell viability assay.
# Assay type: functional, cell-based
# stated conditions: Homo sapiens, ST486
The following compounds are listed with their measured pIC50 values.
Formally, pIC50 is defined as -log10 of the concentration c, with c in mol/L.

line_notation=C/C(=C\c1csc(C)n1)[C@@H]1C[C@@H]2O[C@]2(C)CCC[C@H](C)[C@H](O)[C@@H](C)C(=O)C(C)(C)[C@@H](O)CC(=O)O1 property=pIC50 reported_result=9.14
line_notation=COc1ccc(-c2cc3nccn3c(Nc3ncccc3C(N)=O)n2)cc1OC property=pIC50 reported_result=6.24

Enquiry: # query: pIC50 of entry Nc1ccccc1NC(=O)c1ccc(CNC(=O)OCc2cccnc2)cc1
Return: 6.06
